System Under Test: mouse TAAR1 (Mus musculus (Mouse), UniProt Q923Y8)
Sequence (Q923Y8 whole entry): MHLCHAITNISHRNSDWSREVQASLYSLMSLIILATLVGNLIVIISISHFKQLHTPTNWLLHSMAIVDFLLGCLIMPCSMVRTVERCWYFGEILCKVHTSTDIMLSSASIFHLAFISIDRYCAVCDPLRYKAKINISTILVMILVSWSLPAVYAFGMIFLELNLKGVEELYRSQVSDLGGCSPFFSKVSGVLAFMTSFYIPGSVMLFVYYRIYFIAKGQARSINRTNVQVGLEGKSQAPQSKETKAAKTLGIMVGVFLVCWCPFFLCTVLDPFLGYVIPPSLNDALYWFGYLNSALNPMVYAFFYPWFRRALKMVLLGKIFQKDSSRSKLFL
Assay Text: Radioligand binding assay on mouse TAAR1
Condition Description: mouse TAAR1, HEK-293 membranes, first value of cell mouse/rat; read-out: Ki (μM) mouse
Where a name gives a salt, the structure may show the parent alone.

| Compound | Ki, µM |
| --- | --- |
| O=C(Nc1ccc(CCC2CCCNC2)cc1)c1ccc(Cl)cc1 (racemic) [Example 110, hydrochloride] | 0.0021 |
| O=C(Nc1ccc(C2CCCNC2)cc1)c1ccc(C(F)(F)F)cc1 (racemic) [Example 98, hydrochloride] | 0.0041 |
| O=C(Nc1ccc([C@@H]2CNCCO2)cc1)Nc1ccc(C(F)(F)F)cc1 [Example 311, hydrochloride] | 0.0005 |
| O=C(Nc1ccc(CCC2CCCN2)cc1)c1ccc(C(F)(F)F)cc1 (racemic) [Example 155, hydrochloride] | 0.0107 |
| O=C(Nc1ccc(C2CNCCO2)cc1)c1csc(-c2ncccn2)n1 (racemic) [Example 290, hydrochloride] | 0.0608 |
| O=C(Nc1ccc([C@@H]2CCCNC2)cc1)OCc1ccc(Cl)cc1 [Example 240, hydrochloride] | 0.0146 |
| CCOc1ccc(C(=O)Nc2ccc(C3CCNC3)cc2)cc1 (racemic) [Example 52, hydrochloride] | 0.0017 |
| CCN1CCC(c2ccc(NC(=O)c3ccc(Cl)cc3)cc2)C1 (racemic) | 0.0006 |

----------
System Under Test: mouse TAAR1 (Mus musculus (Mouse))
Assay Text: Radioligand binding assay on mouse TAAR1
Condition Description: mouse TAAR1, HEK-293 membranes, first value of cell mouse/rat; read-out: Ki (μM) mouse
Counter-ions that a name gives are not always drawn.
Observed Property: Ki (µM)

| Molecule | System Under Test | Observed Property | Quantity Unit | Numeric Value |
| --- | --- | --- | --- | --- |
| O=C(Nc1ccc(CCC2CCCCN2)cc1)c1ccc(Cl)cn1 (racemic) [Example 171, hydrochloride] | mouse TAAR1 (Mus musculus (Mouse)) | Ki | µM | 0.198 |
| CCOc1ccc(C(=O)Nc2ccc(CCC3CCCN3)cc2)nc1 (racemic) [Example 172, hydrochloride] | mouse TAAR1 (Mus musculus (Mouse)) | Ki | µM | 0.113 |
| O=C(Nc1ccc(C2CNCCO2)cc1)c1ccc(Cl)cn1 (racemic) [Example 148, hydrochloride] | mouse TAAR1 (Mus musculus (Mouse)) | Ki | µM | 0.0393 |
| Cc1ccc(C(=O)Nc2ccc(C3CNCCO3)cc2)cc1 (racemic) [Example 189, hydrochloride] | mouse TAAR1 (Mus musculus (Mouse)) | Ki | µM | 0.0343 |
| O=C(Nc1ccc(C2CNCCO2)cc1)Nc1ccc(Cl)nc1 (racemic) [Example 302, hydrochloride] | mouse TAAR1 (Mus musculus (Mouse)) | Ki | µM | 0.0574 |
| C[C@@H](C(=O)Nc1ccc(C2CCNC2)cc1)c1ccccc1 (mixture of isomers) | mouse TAAR1 (Mus musculus (Mouse)) | Ki | µM | 0.102 |
| O=C(Nc1ccc(N2CCNCC2)cc1)c1ccc(Cl)cc1 [Example 59, hydrochloride] | mouse TAAR1 (Mus musculus (Mouse)) | Ki | µM | 0.0256 |
| O=C(Nc1ccc(CCC2CCNC2)cc1)c1ccc(Cl)cc1 (racemic) [Example 109, hydrochloride] | mouse TAAR1 (Mus musculus (Mouse)) | Ki | µM | 0.0017 |

----------
System Under Test: rat TAAR1 (Rattus norvegicus (Rat), UniProt Q923Y9)
Sequence (Q923Y9 whole entry): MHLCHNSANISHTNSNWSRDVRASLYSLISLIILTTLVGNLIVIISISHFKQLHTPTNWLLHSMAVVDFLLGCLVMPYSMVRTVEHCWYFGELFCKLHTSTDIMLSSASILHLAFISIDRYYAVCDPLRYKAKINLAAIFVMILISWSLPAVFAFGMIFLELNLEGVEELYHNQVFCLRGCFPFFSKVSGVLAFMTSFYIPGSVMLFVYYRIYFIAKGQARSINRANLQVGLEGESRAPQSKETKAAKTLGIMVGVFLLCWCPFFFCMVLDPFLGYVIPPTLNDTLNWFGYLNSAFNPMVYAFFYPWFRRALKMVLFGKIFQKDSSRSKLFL
Assay Text: Radioligand binding assay on rat TAAR1
Condition Description: rat TAAR1, HEK-293 membranes, second value of cell mouse/rat; read-out: Ki (μM) rat
Where a name gives a salt, the structure may show the parent alone.
Observed Property: Ki (µM)

| Compound | Numeric Value |
| --- | --- |
| O=C(Nc1ccc(C2CCNC2)cc1)c1cc(Cl)ccn1 (racemic) [Example 86, hydrochloride] | 0.116 |
| O=C(Nc1ccc(C2CCNC2)cc1)c1ccc(C(F)(F)F)cn1 (racemic) [Example 139, hydrochloride] | 0.0051 |
| COCc1ccc(C(=O)Nc2ccc(C3CCNC3)cc2)cc1 (racemic) [Example 51, hydrochloride] | 0.0985 |
| O=C(Nc1ccc([C@@H]2CCCNC2)cc1)OCc1ccc(Cl)cc1 [Example 240, hydrochloride] | 0.0009 |

----------
Reported Ki values for a set of molecules
System Under Test: mouse TAAR1 (Mus musculus (Mouse), UniProt Q923Y8)
Assay Text: Radioligand binding assay on mouse TAAR1
Condition Description: mouse TAAR1, HEK-293 membranes, first value of cell mouse/rat; read-out: Ki (μM) mouse
Counter-ions that a name gives are not always drawn.

| Molecule | Ki [µM] |
| --- | --- |
| O=C(Nc1ccc(C2CCNC2)cc1)c1ccc(C(F)(F)F)cc1 (racemic) [Example 18, hydrochloride] | 0.0011 |
| O=C(Nc1ccc(CCC2CCCNC2)cc1)c1ccc(Cl)cn1 (racemic) [Example 118, hydrochloride] | 0.13 |
| CCc1cnc(C(=O)Nc2ccc([C@@H]3CCCNC3)cc2)cn1 [Example 274, hydrochloride] | 2.51 |
| O=C(Nc1ccc(C2CCCNC2)cc1)Nc1ccc(Cl)nc1 (racemic) [Example 79, hydrochloride] | 0.0075 |
| O=C(Nc1ccc(C2CCNC2)cc1)Nc1cccc2cccnc12 (racemic) | 0.0227 |
| O=C(Nc1ccc(CCC2CCNC2)cc1)c1ncc(F)cc1F (racemic) [Example 133, hydrochloride] | 1.52 |
| O=C(Nc1ccc(C2CCNC2)cc1)c1cc(Cl)ccn1 (racemic) [Example 86, hydrochloride] | 0.0051 |
| O=C(Nc1ccc(C2CCNC2)cc1)Nc1ccc(C(F)(F)F)cc1 (racemic) [Example 27, hydrochloride] | 0.0013 |
| O=C(Nc1ccc(Cl)cc1)Nc1ccc(C2CNCCO2)cc1 (racemic) [Example 292, hydrochloride] | 0.001 |
| O=C(Nc1ccc([C@@H]2CCCNC2)cc1)c1cnc(OCC(F)(F)F)cn1 [Example 250, hydrochloride] | 0.288 |
| O=C(Nc1ccc(C2CCNC2)cc1)OCCc1ccc(C(F)(F)F)cc1 (racemic) | 0.0003 |
| Cc1cc(C(=O)Nc2ccc(C3CNCCO3)cc2)ccn1 (racemic) [Example 294, dihydrochloride] | 1.18 |
| O=C(Nc1ccc(C2CCN(Cc3ccccc3)C2)cc1)c1ccc(Cl)cc1 (racemic) | 0.0269 |
| Cc1ccc(C(=O)Nc2ccc([C@H]3CNCCO3)cc2)cc1 [Example 196, hydrochloride] | 0.0524 |
| O=C(Nc1ccc(C2CCCNC2)cc1)c1ccc(Cl)c(Cl)c1 (racemic) [Example 96, hydrochloride] | 0.0016 |
| COc1cc(C(=O)Nc2ccc([C@@H]3CCCNC3)cc2)ccc1Cl [Example 201, hydrochloride] | 0.113 |
| O=C(Nc1ccc(C2CCNC2)cc1)c1ccc(OCC(F)(F)F)nc1 (racemic) [Example 89, hydrochloride] | 0.0059 |
| Cn1cc(-c2nc(C(=O)Nc3ccc(C4CNCCO4)cc3)cs2)cn1 (racemic) [Example 296, hydrochloride] | 0.0645 |
| COC(=O)c1ccc(COc2ccc(C(=O)Nc3ccc(C4CNCCO4)cc3)cc2)cc1 (racemic) [Example 211, hydrochloride] | 0.004 |
| O=C(Nc1ccc(CCC2CCCN2)cc1)c1ccc(F)cc1 (racemic) [Example 156, hydrochloride] | 0.153 |
| O=C(O)c1ccc(COc2ccc(C(=O)Nc3ccc(C4CNCCO4)cc3)cc2)cc1 (racemic) [Example 212, hydrochloride] | 2.5 |
| O=C(Nc1ccc(CCC2CCCCN2)cc1)c1ccc(Cl)cc1 (racemic) [Example 169, hydrochloride] | 0.0607 |
| CO[C@H]1CC[C@H](C(=O)Nc2ccc(C3CNCCO3)cc2)CC1 (mixture of isomers) [Example 255, hydrochloride] | 5.1 |
| O=C(Nc1ccc(C2CCNC2)cc1)OCCc1cc(F)ccc1F (racemic) | 0.0013 |
| O=C(Nc1ccc(C2CNCCO2)cc1)c1ccnc(Cl)c1 (racemic) [Example 218, hydrochloride] | 0.0872 |
| CCOc1ccc(C(=O)Nc2ccc(C3CCCNC3)cc2)cc1 (racemic) [Example 97, hydrochloride] | 0.0038 |
| O=C(Nc1ccc(C2CNCCO2)cc1)Nc1cccc(Cl)c1 (racemic) [Example 303, hydrochloride] | 0.002 |
| O=C(Nc1ccc(C2CCCNC2)cc1)c1cccc(Cl)c1 (racemic) [Example 92, hydrochloride] | 0.0238 |
| COc1cc(C(=O)Nc2ccc(C3CCNC3)cc2)nc2ccccc12 (racemic) [Example 90, hydrochloride] | 0.0192 |
| O=C(Nc1ccc(C2CNCCO2)cc1)c1ccc(N2CCCC2)nc1 (racemic) [Example 279, hydrochloride] | 0.146 |

----------
System Under Test: UniProt:Q923Y8
Assay Text: Radioligand binding assay on mouse TAAR1
Condition Description: mouse TAAR1, HEK-293 membranes, first value of cell mouse/rat; read-out: Ki (μM) mouse
Structures can show the parent of a compound that is named as a salt.
Reported Ki values for a set of molecules
Observed Property: Ki (µM)

| Molecule | Quantity Unit | Numeric Value |
| --- | --- | --- |
| CCOc1ccc(C(=O)Nc2ccc([C@H]3CNCCO3)cc2)cc1 [Example 276, hydrochloride] | µM | 0.0558 |
| O=C(Nc1ccc(CCC2CCCNC2)cc1)Nc1ccc(Cl)cn1 (racemic) [Example 115, hydrochloride] | µM | 0.32 |
| O=C(Nc1ccc(CCC2CCCN2)cc1)c1cccc(Cl)c1 (racemic) | µM | 0.142 |
| CCOc1cc(C(=O)Nc2ccc(C3CNCCO3)cc2)ccn1 (racemic) [Example 300, hydrochloride] | µM | 0.0726 |
